- measurement_notes: protease stability score; higher = more stable; yeast display proteolysis, trypsin and chymotrypsin;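 note: log10 excess protease needed over predicted unfolded state with 0 meaning unfolded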
readout_label: protease stability score

- DHEDLVKRFIETMKEIYHTGNFRELANLADEDVQIHVGDKTVTGREHLRKEQETTERHADHATMRVDEVEVDGDKARVVFTVTIQVNGEKRSDRLVVEFRVHNGQLRIKSMRQQ: 1.05
- DEEKLRKDMEEAFRLVTQGNPEEFADRFRDNPRMHVGDKEYHGREEARKAITTLVKHIDRIELHHIDIQGDKAEVRYRATVNGKRADHVMRIEANNGQLQRASVDPDLVTSVLR: -0.347
- DDKAADDARRALEQLNTGNEERAATYMDPNVSVRIGDKSVHGREEIQRSEERKRRRLEVQYKDYRVSVENGEFTASYDYTNHHNGRPQRVKVEVHISADNGKIKSVQQHEDK: 0.213
- DEEKLMRNMIKKVSKLLKEGNWDEIANNADKNAKYDVGDTEVHGKEHAQEMHDRFRQNVDHAELSVTRVDVKGDKVQVHVDHSFTNNGRKHKFHLIFWASNVNGRMVIKSVQQK: 0.565
- DEKALENLRRVNDARKTNDEDRIKKLLDKDARVQVGDRQIKGRENVSDTLRKLEEHMRIEIKDYRVDVQNGRAKLEVHWQFEVNGKPRKVTYDWEAEANNGKIQTMHAQFTEEDKRKRKQ: -0.039
- DEKRVKEMVKKIFEVIKKGDEDKIVKQLMPNVEYHYIDQKFEGEDAARHIVKIVKHIGAEDREKKHEVNGDTMTVVFVYHNGDKTIQTKATVTYEGDVVKKAEVRLDDEVKKLARKG: 0.088
- EEEANKHLRQWWRNFRKGSEEKMKNLMDPNVRVVVGDKVYSGREQVMKMVRDQLTHARFDFDLERLSAHNGKIDITMKLVADINGKPVKVHVKADVQYSNGRIESIVLHVDPDQQRKLTE: 2.19
- DEEDEQKLAQTLAEVWKQNDEDQFVRLLDKDARVKVGDNEFRGREEAKRMMQELHRRVDHMEIKSVHAKNGSITATLRAEINGKEWRFILEAVYHNGQVKSVHIRDQ: 1.68
- EEEKLEKMVKDVFEAVQKGNMEELKQYLKEDVRFQFGDNRYQGVDQYVKLMKTMTEQGVQFEFKKFQMKDNTVTMETEAKYADHEVRVKAEARYEGGRLDEARVELTEEAKEIYKKG: 1.17
- DEESLRKFAKRVFRALQTGNPEDIHRLFDKDAHFVVGDKEVHGREQAIKFLSHIRRRADRISLKRMSVRGDKVSIDLQMTVDGHRTRFIVYIQVHNGRARRLKIEEN: 1.57
- DEDLLRKIKQLLRAFEDNNEDQLRKNADPNARFVYGDKHIHGMEEAMRHQVTRYKEIRIERQIDTMSVTNGRANVQFTVVENHNGRPDTFHVQVDIKAHNGRVHTIEYEIHK: 0.387
- DEEQMKKVVEKLVQALRNGNTDEIVRMVKEDVTFKLSDETYRGQEDVRKMAKQLQDKGNKMELKHKEAKGDEAEVVTVWHVGDKTAKLKVRYVVKDDKVEKVQADWSEEVVKAYKHG: 0.122
- DDRDIERAKEMFKAIKTGDPDRLSELVDENARVKIGDKEWHGNTEWVEDLERKKKEMSVDLQIHKIEDRNGVAQIHMTRRMDHNGKPRSDKYVLFIRARNGRIVDVRAEERS: 0.097
- DEEELETMRRILKENDWETIAHNADKDVKMTVGDKTIHGRENVRHWVKKWQKNVDHIDVESIDVQGDRIDMVARNVVNGKTMKLVFHINVHNGHVQEIELRARNEKDEELLRKAEG: 1.3
- DEENVKQVERQFKQRDEGNEERVVDQADENASINIGDKRYHGMTDAAKKLVTRLKEIRFERRVVSVTMHNGKFDANYEQTQNTNGNPRTFRYKLVIHMKNGRVKSAHIQEDG: 0.062
- EKENVQSWLEAWNALRQGDEKRVEQLVDPNARMQVGDKKVEGMTRHVHKEVRKMKEIRVELDLKTVDTQGDHAVVKFRESRNHNGQPREQDVVVRMRAHNGRVQEVNVHEVS: 0.028
- DEEKQDTWAKEFVKMLKQGNKTDARRLFDPNATLEYGDKRVHGREQAVEAQKQRSDKVDHMQVDSVSAHNGKMDIDLVLNVNGERKRQRVVANIHNGKIKYFSVQDS: -0.248
- DETNLKKVLDVLKDNDEKKLEELADEDAKNDIGNFDYRGRRQFEEAMRHRRKMIDSLEVKSVRADGDKAEIDMSAVINGREVKASQMVKVHNGRIKSISVRFTDPDKEREADKKAQ: 0.023
- DEQSVAEELFENLQDAVRENNPDEYKKLVDPNVNFDVGDKKVHGREQASEKFRQDLERADHIDMKVTSLRVDNGRAQADVRVTRVINGESETVEYILRFEVHGDEAVVKSQHDK: 0.45
- DDEQANEIISIMETGDPDKLSNMADENAKIVIGDTQIHGREDYERVATILYKQIDHHHFEHLTFTGDKVVIVWQYVVNGKQVRQRVKFDVHNGRLKHMRMEFTDPEELKIVEEILS: 1.59
- EEEVSKRAREFVEAYQTGNEDKMHRLVDENADAQYGDKHIHGMTEIKRHVKRLTEEIRVQVESMDVKANNGHVRVRVHLVLHINGNPIDVTVIIVMRFKNGTIRSVQFRMPEEARDTIRK: -0.077
- DEEDLKTAHRRQRTNDFDRIRNKADKDAHVQVGDTQVHGREEVKKFMTLLKKRVDHVEIHDIEKKPGRLVVELRMNVNGQEIDLVVMFQFKNGSLKHMRFKVRDEDDKRKLEKALS: 0.432
